# Molecule, melting point
records = [
    ("CNC(=S)C1(c2cccnn2)CCCS1 (stereo not given)", "199 °C"),
    ("COc1cc2ccc3c4cc5c(cc4cnc3c2cc1OC)OCO5", "275 to 277 °C"),
    ("CCNC(=O)c1cc(N)ccc1[Si](C)(C)C", "143 to 145 °C"),
    ("COC(=O)C1=C(C)NC2(O)COC(=O)C2C1c1cccc([N+](=O)[O-])c1 (stereo not given)", "147 to 149 °C"),
    ("CCCCCC(CC(=O)Nc1cc(CNC(N)=O)ccc1C(C)(C)C)c1ccc(OC)cc1OC (stereo not given)", "112 to 113 °C"),
    ("Cc1oc(-c2ccccc2)nc1COc1ccc2cc(CCCc3nnn[nH]3)oc2c1", "139 to 140 °C"),
    ("CC1=C(C#N)C(c2ccccc2C(F)(F)F)c2c(ccnc2OC(C)C)N1 (stereo not given)", "207 to 209 °C"),
    ("CCCCn1nc(C)c(C=O)c1Cc1ccc(-c2ccccc2-c2nnn[nH]2)cc1", "64 to 70 °C"),
    ("CCOC(=O)CN(CC(=O)OCC)C(=O)C(CCC(=O)O)CS(=O)(=O)c1ccc2ccccc2c1 (stereo not given)", "108 to 111 °C"),
    ("CCOCC(=O)Nc1occ(C(C)(C)C)c1C#N", "98 °C"),
    ("Nc1c(Cl)cc(C(O)CNCCCCCCOCCCCCCc2cncnc2)cc1Cl (stereo not given)", "59 to 60 °C"),
    ("CCN1CCc2ccc(OC)c(Nc3ncc(Cl)c(Nc4ccc(N5CCOCC5)cc4OC)n3)c2CC1=O", "87 to 103 °C"),
    ("CCCCN(C(=O)NCCCCCCNC(=O)N(CCCC)C1CC(C)(CC)NC(C)(CC)C1C)C1CC(C)(CC)NC(C)(CC)C1C (stereo not given)", "146 °C"),
    ("O=NSC1(C2OCCO2)CCCCC1", "37 to 39 °C"),
    ("CCOC(=O)c1cc(CC)sc1Nc1cc(F)ccc1N", "100 to 101 °C"),
    ("NC(=O)Cc1cc(=O)oc2cc(OCc3cccc(Cl)c3)ccc12", "185 to 186 °C"),
    ("COc1ccc(C2CC(OC(C)=O)CCC2[N+](=O)[O-])cc1OC (stereo not given)", "108 to 110 °C"),
    ("CCCCCCCCCCCOC(=O)NCCC", "45 to 45.5 °C"),
    ("CC(=O)NC(C)CCC1CCC(n2cc3ccc(OCC4CC4)cc3n2)CC1 (stereo not given)", "139 to 140 °C"),
    ("COC(=O)CSc1nc(N2CCN(c3ncccn3)CC2)ncc1[N+](=O)[O-]", "250 to 252 °C"),
]
